Where do these numbers come from? They come from patent US10428140B2.

Each record here notes measured hEphA8-SEAP-: absorbance at 450 nm, percentage with respect to hEphA4-SEAP-His as 100%.
Target: T1, human EphA8 (Homo sapiens, UniProt P29322)
T1 construct: a protein of the extracellular region of each human Eph receptor fused with the SEAP protein and the His tag; made in house; host or cells: Expi293F cells (culture supernatant)
T1 sequence (P29322 28-542 limits assumed): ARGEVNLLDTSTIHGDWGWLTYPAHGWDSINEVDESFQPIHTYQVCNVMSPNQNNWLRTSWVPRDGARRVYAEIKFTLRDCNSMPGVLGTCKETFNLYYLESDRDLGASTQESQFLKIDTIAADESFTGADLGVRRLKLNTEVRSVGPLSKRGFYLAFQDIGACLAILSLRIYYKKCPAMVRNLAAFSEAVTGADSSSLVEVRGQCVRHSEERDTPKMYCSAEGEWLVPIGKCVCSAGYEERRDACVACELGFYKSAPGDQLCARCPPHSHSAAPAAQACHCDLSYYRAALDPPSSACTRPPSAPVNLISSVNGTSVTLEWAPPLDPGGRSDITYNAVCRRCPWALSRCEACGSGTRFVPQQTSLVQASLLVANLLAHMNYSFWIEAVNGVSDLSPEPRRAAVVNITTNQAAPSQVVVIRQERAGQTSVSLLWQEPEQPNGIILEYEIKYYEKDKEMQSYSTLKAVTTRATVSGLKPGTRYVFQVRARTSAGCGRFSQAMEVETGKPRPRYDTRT
Assay: Selectivity ELISA of humanized antibodies for human Eph receptor
Format: binding
Settings: coated protein 1 nM
I only need the number, in %, no unit after it.

Would you please look over these solved cases?
# molecule, numeric.readout
measured = [
    ("95 (antibody, V domains shown, constant regions without entry; synthetic humanized antibody light chain variable region sequence; synthetic humanized antibody heavy chain variable region sequence) VL: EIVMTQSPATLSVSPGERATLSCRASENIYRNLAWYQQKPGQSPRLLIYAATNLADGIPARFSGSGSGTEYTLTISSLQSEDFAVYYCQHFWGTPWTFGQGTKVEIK VH: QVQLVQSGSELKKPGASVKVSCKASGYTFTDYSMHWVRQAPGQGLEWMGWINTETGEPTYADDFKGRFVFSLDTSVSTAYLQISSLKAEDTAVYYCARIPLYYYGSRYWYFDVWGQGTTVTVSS", 4.4),
    ("143 (antibody, V domains shown, synthetic humanized antibody heavy chain variable region sequence; synthetic humanized antibody light chain variable region sequence) VH: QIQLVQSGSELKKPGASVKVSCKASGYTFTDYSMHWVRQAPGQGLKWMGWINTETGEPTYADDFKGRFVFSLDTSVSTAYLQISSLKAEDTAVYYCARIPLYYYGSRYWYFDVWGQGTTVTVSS VL: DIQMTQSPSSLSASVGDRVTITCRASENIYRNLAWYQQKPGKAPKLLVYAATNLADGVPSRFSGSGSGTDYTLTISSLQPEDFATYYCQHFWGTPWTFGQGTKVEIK", 6.0),
    ("156 (antibody, V domains shown, synthetic humanized antibody heavy chain variable region sequence; synthetic humanized antibody light chain variable region sequence) VH: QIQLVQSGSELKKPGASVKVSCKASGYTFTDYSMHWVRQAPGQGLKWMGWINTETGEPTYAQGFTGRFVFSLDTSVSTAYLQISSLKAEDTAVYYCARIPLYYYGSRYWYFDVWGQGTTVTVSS VL: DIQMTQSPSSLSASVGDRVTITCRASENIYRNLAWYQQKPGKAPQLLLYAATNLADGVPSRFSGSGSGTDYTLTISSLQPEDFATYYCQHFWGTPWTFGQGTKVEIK", 5.5),
]

Switching to the query record.
**Query** Looking for the measured hEphA8-SEAP-: absorbance at 450 nm, percentage with respect to hEphA4-SEAP-His as 100% of 73 (antibody, V domains shown, synthetic humanized antibody heavy chain variable region sequence; synthetic humanized antibody light chain variable region sequence) VH: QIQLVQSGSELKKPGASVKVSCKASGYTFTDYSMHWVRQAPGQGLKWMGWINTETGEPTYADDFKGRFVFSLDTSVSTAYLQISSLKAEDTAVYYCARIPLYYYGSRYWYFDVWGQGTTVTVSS VL: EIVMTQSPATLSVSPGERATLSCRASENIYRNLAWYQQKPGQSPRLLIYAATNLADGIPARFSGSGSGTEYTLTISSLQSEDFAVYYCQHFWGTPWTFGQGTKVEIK , can you help?
**Result** 5.8
